Cited source: PubChem BioAssay AID1159606

- procedure details: inhibitors of TWEAK-Fn14 signaling, primary screen, luciferase reporter cells, uHTS (AID 1159606)
- condition info: TWEAK-stimulated Fn14 reporter cells, luciferase luminescence, 8 h; at 10 µM
In all, about 360,000 compounds went through this assay and about 7,300 (2%) were called active. Rule as the data show it: active = inhibition above about 50%; inactive = the rest. The list comes from a sample in which actives are over-represented; it also holds close analogues and randomly drawn compounds.
Please answer using one outcome listed in active, inactive

Below, 6 compounds whose answers are already recorded.
compound: CSc1ncccc1C(=O)Nc1ccc2c(c1)OCO2
class name: inactive

compound: CC(C)(C)c1ccc(Cn2nnc3c(=O)[nH]c(C4CCCN(C(=O)c5ccco5)C4)nc32)cc1 (stereo unspecified)
class name: inactive

compound: CCOC(=O)C(=Cc1ccccc1OC)C(=O)OCC
class name: active

compound: COc1cccc(/C=C/C(=O)OCC(=O)N2CCCc3ccccc32)c1
class name: inactive

compound: COc1ccccc1/C=C/C(=O)NC1CC2CCC1C2 (stereo unspecified)
class name: inactive

compound: CC[C@@H]1Cc2cc(O)ccc2C2=C1c1ccc(O)cc1C[C@H]2CC
class name: active

Now look at this one.
Ask: How did this test come out for COc1ccccc1C(=O)N(C1=NC(C)CS1)c1ccc(Cl)cc1 (stereo unspecified) ?
Reply: inactive

###

- procedure details: inhibitors of TWEAK-Fn14 signaling, primary screen, luciferase reporter cells, uHTS (AID 1159606)
- condition info: TWEAK-stimulated Fn14 reporter cells, luciferase luminescence, 8 h; at 10 µM; stronger effect = higher value
Screen size: about 360,000 compounds; about 7,300 (2%) were called active. For the sample, actives were picked, then their nearest neighbours and some compounds at random.
measurement kind: inhibition (%)
Give bare numbers, in %.

The cases that follow already have their inhibition on record.
compound: CSc1ccc(Cl)c(C(=O)OCC(=O)N2CC(C)OC(C)C2)c1 (configuration not stated)
value: 3.56
--
compound: CCOC(=O)C1CCCN(C(=O)C2CCN(S(=O)(=O)c3ccc(Cl)c(C(F)(F)F)c3)CC2)C1 (configuration not stated)
value: -2.02
--
compound: O=C(Nc1ccccn1)C1CCN(S(=O)(=O)c2ccccc2)CC1
value: -18.5

I would be grateful if you could provide inhibition for each of the following entries.
1. CC(=O)Nc1ccc(S(=O)(=O)N2CCCC2C(=O)O)cc1 (configuration not stated)
2. O=C1NC[C@H](CCCCN2CCN(CCc3ccccc3)C(=O)C2=O)N(CC2CCCCC2)C1=O

Reply:
0.16
-2.45

Please supply inhibition for each of the following items, keeping them in order.
1. CC(C)(C)NC(=O)Cn1cnc2cc([N+](=O)[O-])ccc2c1=O
2. Cc1ccnc(N2C(=O)c3ccccc3C2Nc2ccc3c(c2)OCCO3)c1 (configuration not stated)
3. O=C(Nc1ccc2c(c1)OCCO2)C1c2ccccc2OCC(=O)N1Cc1ccccn1 (configuration not stated)
4. COC(=O)[C@]12CCCCC=C1N(Cc1ccco1)C(=O)[C@H](CC(=O)NCCCCc1ccccc1)C2

Reply:
83
61.2
-0.53
16.9

For each entry beneath this line, provide reported inhibition.
1. CSc1ncnc2c1ncn2CCCNCC1CCCCC1
2. FC(F)(F)c1ccc2nnc(-c3c(Cl)cccc3Cl)n2c1
3. CC(=O)Nc1ccc(S(=O)(=O)Nc2ccc(N3CCCCC3)cc2)cc1
4. O=C(/C=C/c1cn(-c2ccccc2)nc1-c1ccc2c(c1)OCCO2)NCCCN1CCOCC1
5. S=C(NCc1ccco1)Nc1ccc2c(c1)OCCO2
6. Cc1cc(C(C)(C)C)cc(C)c1N
7. Clc1cccc(Cc2c(-c3cccc(Cl)c3)nc3ccc(Cl)cn23)c1

Reply:
1. -1.18
2. 0.93
3. 84.7
4. -1.36
5. 2.21
6. -8.01
7. -8.97

Could I get inhibition for every one of these entries?
1. CCCC1C(=O)N2C(N(C)C)=Nc3ccc(C)cc3N2C1=O (configuration not stated)
2. Cc1cccc(N=C2SC(C)CN2C(=O)CN2C(=O)NC3(CCCC3)C2=O)c1 (configuration not stated)
3. COc1ccc(C(C)NC(=S)NC2CCCCC2)cc1OC (configuration not stated)
4. Brc1ccc2nc(-c3ccccc3)c(Cc3ccccc3)n2c1
5. CC(C)(C)c1ccc(Oc2ccc(N)cc2)cc1

Reply:
1. -18.1
2. 5.82
3. 10.8
4. -30.1
5. 99

Ask: Which value of inhibition has been reported for CSc1ncnc2c1ncn2CC(=O)C1CCC2C3CCC4=CC(=O)CCC4(C)C3CCC12C (configuration not stated) in the records?
Reply: 105

###

- procedure details: inhibitors of TWEAK-Fn14 signaling, primary screen, luciferase reporter cells, uHTS (AID 1159606)
- condition info: TWEAK-stimulated Fn14 reporter cells, luciferase luminescence, 8 h; at 10 µM; stronger effect = higher value
Out of some 360,000 compounds screened, about 7,300 (2%) were called active. This is one part of a sample in which actives are shown more often than they occur.
Please go through the items and note down their inhibition.
Answers are plain numbers, in %.

Below are worked cases with known answers.
compound: COc1ccc(C(C#N)Nc2ccccc2C)cc1 (stereo unspecified)
result unit: %
inhibition: -0.99
--
compound: O=C(Nc1ccc(OC(F)(F)F)cc1)c1ccc2c(c1)no[n+]2[O-]
result unit: %
inhibition: 60.4
--
compound: Fc1ccc2nc(-c3ccccc3)nc(SCc3nnc(-c4ccccc4)o3)c2c1
result unit: %
inhibition: 1.42
--
compound: CCOc1c2ccc(C(=O)NCc3ccc(OC(F)(F)F)cc3)cc2nn1C
result unit: %
inhibition: -25.1
--
compound: CCOC(=O)Cc1ncccc1C(=O)Nc1ccc(OC(F)(F)F)cc1
result unit: %
inhibition: -7.78

Ask: May I ask what inhibition has been recorded for Cc1ccc(C(=O)CN2C(=O)NC3(CCc4ccccc43)C2=O)c(C)c1 (stereo unspecified) ?
Reply: -25.2

###

- procedure details: inhibitors of TWEAK-Fn14 signaling, primary screen, luciferase reporter cells, uHTS (AID 1159606)
- condition info: TWEAK-stimulated Fn14 reporter cells, luciferase luminescence, 8 h; at 10 µM; stronger effect = higher value
Hit rate of the full screen: of about 360,000 compounds, about 7,300 (2%) were called active. This excerpt belongs to a sample that is enriched for actives.
measurement kind: inhibition (%)
Give bare numbers, in %.

molecule: O=S(=O)(Nc1ccc(OC(F)(F)F)cc1)c1cccc2nonc12
inhibition / %: -6.65

Count: 5. Required value per item: inhibition.
1. Cc1ccsc1C(=O)OCC(=O)NCCc1ccccc1
2. C=CCNc1nnc(SCC(=O)N2CCCCC2)c2ccccc12
3. CCCCC(O)C1=C[N+](=O)CC=C1 (stereo unspecified)
4. Cc1ccsc1C(=O)OCC(=O)c1cc(C)n(CC2CCCO2)c1C (stereo unspecified)
5. C=CCn1c(SCc2nnc(-c3ccccc3)o2)nnc1C(O)c1ccccc1 (stereo unspecified)

Reply:
1: -22.4; 2: 16.3; 3: 39.5; 4: 103; 5: -3.86

###

- procedure details: inhibitors of TWEAK-Fn14 signaling, primary screen, luciferase reporter cells, uHTS (AID 1159606)
- condition info: TWEAK-stimulated Fn14 reporter cells, luciferase luminescence, 8 h; at 10 µM; stronger effect = higher value
Hit rate of the full screen: of about 360,000 compounds, about 7,300 (2%) were called active. For the sample, actives were picked, then their nearest neighbours and some compounds at random.
measurement kind: inhibition (%)
Numbers only, in %.

compound: CC1=NNC(=O)C1Cc1c(Cl)cccc1Cl (stereo not given)
result unit: %
inhibition: 4.96

compound: Cc1ccc(S(=O)(=O)N2CCC(=O)N([C@H](COCc3ccccc3)Cc3ccccc3)CC2)cc1
result unit: %
inhibition: 1.7

compound: COc1ccccc1CN1CCNC(=O)C1CC(=O)N(C)CC1CCOCC1 (stereo not given)
result unit: %
inhibition: 1.59

compound: COC(=O)[C@]12CCCCC=C1N(CCC1=CCCCC1)C(=O)[C@H](CC(=O)NCC1CCCCC1)C2
result unit: %
inhibition: 9.77

compound: CN(Cc1cccc2ncccc12)C(=O)CC1C(=O)NCCN1Cc1ccc(F)cc1 (stereo not given)
result unit: %
inhibition: -1.61

compound: CCc1nc2ccc(C(=O)Nc3cc(-c4ccccc4)ccc3OC)cn2c1N(CC)CC(=O)N(C)C
result unit: %
inhibition: 9.07

Look up inhibition for the entries below, preserving their order.
1. CCCC(=O)Nc1ccc(C(=O)NCCCn2ccnc2)cc1
2. CC(C)C(NC(=O)C1CCC(C(C)(C)C)CC1)C(=O)NCCCN1CCCCC1 (stereo not given)

Reply:
[-38.4, -11.2]

Please state inhibition for every compound in the list that follows.
1. CCN(CCn1cccn1)C(=O)CC1C(=O)NCCN1Cc1cccc(OC)c1OC (stereo not given)
2. COc1ccc(NC(=O)CN(C)C(=O)Cc2coc3cc(C)c(C)cc23)cc1

Reply:
1. 68.3
2. -4.06

###

Please provide measured inhibition for the entries that follow.
- procedure details: inhibitors of TWEAK-Fn14 signaling, primary screen, luciferase reporter cells, uHTS (AID 1159606)
- condition info: TWEAK-stimulated Fn14 reporter cells, luciferase luminescence, 8 h; at 10 µM; stronger effect = higher value
In all, about 360,000 compounds went through this assay and about 7,300 (2%) were called active. This is one part of a sample in which actives are shown more often than they occur.
Give bare numbers, in %.

These solved cases illustrate the format of a correct answer.
molecule: COc1ccccc1OCc1nc2ccccc2s1
value: 72.9
--
molecule: CCOC(=O)c1c(-c2ccccc2)csc1NC(=S)NC(=O)c1ccccc1
value: 57.9
--
molecule: COCc1nnc(NC(=O)c2ccc3c(c2)OCO3)s1
value: 14.7
--
molecule: C/C(=N/NC(=O)c1ccncc1)c1ccc2c(c1)OCO2
value: 11.5
--
molecule: COc1ccc(Cc2nnc(SCC(=O)N(c3ccccc3)C(C)C)n(N)c2=O)cc1
value: 4.78
--
molecule: CC(C)(C)NC(=O)CN(C(=O)c1csnn1)c1ccccc1-c1ccccc1
value: -13.7
--
molecule: O=C(NNS(=O)(=O)c1ccccc1)c1cnn(-c2ccc(Cl)cc2)c1C(F)(F)F
value: 4.65
--
molecule: Cc1cc(CNC(=O)C2CCC(=O)N(CCc3ccc(Cl)cc3)C2)no1 (stereo not drawn)
value: 0.87
--
molecule: CCOc1ccc(S(=O)(=O)N2CCN=C2Cc2ccccc2)cc1C
value: -1.14
--
molecule: CC(OC(=O)Cc1ccc(F)cc1)C(=O)N1CCc2ccccc21 (stereo not drawn)
value: -3.73

For every item in the list below, what is its measured inhibition?
1. COCCNc1nc2nonc2nc1N1CCCC1c1nccs1 (stereo not drawn)
2. O=C(Nc1ccccc1C(=O)N1CCOCC1)c1ccc(Cl)cc1
3. CCOC(=O)Cc1csc(NC(=O)CN(C)S(=O)(=O)c2ccc3c(c2)CCC(=O)N3)n1
4. O=C(c1ccc2c(c1)C(=O)N(c1ccc(Cl)cc1)C2=O)N1CCN(c2ccccn2)CC1

Reply:
-4.57
-5.43
1.66
-12.4

Hey, quick one: what's inhibition for each of these?
1. CCCCNC(=O)C[C@@H]1C[C@@]2(C(=O)OCC)CCC=C2N(Cc2cccc3ccccc23)C1=O
2. COc1cc2c(C(=O)O)c(C)n(C)c2c2ccccc12
3. CN(/C(=N/S(=O)(=O)c1cccs1)c1ccccc1)c1ccc(O)cc1
4. CCOC(=O)C1=C(NC(=S)NC(=O)c2ccccc2)c2ccccc2CC1(C)C
5. CCOC(=O)[C@]12CCCC=C1N(Cc1cccc3ccccc13)C(=O)[C@H](CC(=O)NCC13CC4CC(CC(C4)C1)C3)C2
6. O=C(Nc1nc(-c2ccc3c(c2)OCO3)cs1)c1ccncc1

Reply:
14.7
14
7.69
4.16
25.4
57.8

Batch request: inhibition per item, same order as input.
1. CCOC(=O)c1c(NC(=S)NC(=O)/C=C/c2cccs2)sc(C)c1C
2. Nc1ccccc1SC(C[N+](=O)[O-])c1ccccc1 (stereo not drawn)
3. CCc1ccc(-c2nnn(Cc3nc4ccccc4s3)n2)cc1
4. N#Cc1ccccc1NC(=O)c1ccc2c(c1)OCO2
5. Oc1c(CN2CCOCC2)ccc(CN2CCOCC2)c1O
6. O=C(COC(=O)c1ccncc1)c1ccccc1

Reply:
1: 20.2; 2: 61.3; 3: -5.59; 4: -17.5; 5: 2.4; 6: -3.5

Report inhibition for each item below.
1. CCOCCCN(C)C1CCN(C(=O)c2oc3ccccc3c2NC(=O)COc2cccc(C)c2)CC1
2. CCCCN1C(=O)C(CC(=O)NCc2cccs2)CC(C(=O)N2CCCCCC2)=C1C (stereo not drawn)
3. Cc1ccc(-c2csc(NC(=O)C3=COCCO3)n2)cc1C
4. CC(Oc1ccc(Cl)cc1)c1ccnn1S(C)(=O)=O (stereo not drawn)
5. C=CCn1c(C)cc(C2=NNC(=NCC)SC2)c1C
6. NC(=O)c1ncn([C@@H]2O[C@H](CN=C3NS(=O)(=O)c4ccccc43)[C@@H](O)[C@H]2O)n1

Reply:
1: -4.99; 2: -6.58; 3: 1.4; 4: 8.92; 5: 107; 6: -2.64
